# MEASURED_ON: human sEH (Homo sapiens, UniProt P34913)
# Construct: made in house; host or cells: baculovirus expression system
# Sequence (P34913 1-555): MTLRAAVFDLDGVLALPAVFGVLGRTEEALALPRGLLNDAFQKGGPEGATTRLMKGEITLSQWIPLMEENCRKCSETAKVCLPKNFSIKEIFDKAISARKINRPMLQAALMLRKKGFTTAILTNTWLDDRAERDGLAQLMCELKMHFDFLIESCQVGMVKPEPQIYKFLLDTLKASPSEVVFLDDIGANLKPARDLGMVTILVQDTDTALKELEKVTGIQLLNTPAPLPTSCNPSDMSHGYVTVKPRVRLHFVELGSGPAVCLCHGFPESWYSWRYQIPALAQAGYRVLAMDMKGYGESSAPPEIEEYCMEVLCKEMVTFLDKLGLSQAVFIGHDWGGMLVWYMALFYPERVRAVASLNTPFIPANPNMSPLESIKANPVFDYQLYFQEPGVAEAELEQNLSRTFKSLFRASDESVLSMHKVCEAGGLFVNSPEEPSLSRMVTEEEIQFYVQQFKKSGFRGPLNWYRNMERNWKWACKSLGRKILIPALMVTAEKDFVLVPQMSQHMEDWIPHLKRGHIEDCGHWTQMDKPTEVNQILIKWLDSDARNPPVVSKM
# PROTOCOL_NOTES: Inhibition of recombinant human sEH, IC50 assay with 4-nitrophenyl-trans-2,3-epoxy-3-phenylpropyl carbonate as substrate
# Format: biochemical
# TEST_CONTEXT: Tables 17a and b; read-out: IC50 (μM) Human sEH
MEASURED_ENDPOINT: IC50 (µM)

Example cases with answers are listed next.
> print(dat)
                                   compound  result
1  O=C(NCCCCCCCCCCCCN[S+]([O-])NC12CC3CC(CC(C3)C1)C2)NC12CC3CC(CC(C3)C1)C2 (stereo not drawn)    0.44
2  CCCCC(CC)OCCCCCNC(=O)NC12CC3CC(CC(C3)C1)C2 (stereo not drawn)    0.24
3  O=C(NCCCCCOCCC(F)(F)F)NC12CC3CC(CC(C3)C1)C2    0.23
4  CCOC(=O)c1ccc(C(C#N)OC(=O)CCCNC(=O)NC23CC4CC(CC(C4)C2)C3)cc1 (stereo not drawn)    0.11
5               COc1ccc(CC(=O)NC2CCCCC2)cc1     4.8

A. CCOC(=O)c1ccc(COCCOCCOCCCCCNC(=O)NC23CC4CC(CC(C4)C2)C3)cc1
B. O=C(Cc1ccccc1)NC1CCCCC1
C. O=C(CC1CCCCC1)Nc1cccc(Cl)c1
D. O=C(Nc1ccc2ccccc2c1)NC1CCCCC1
Put the entries in order of IC50, starting with the largest number. Put the labels in the requested order and list them out. B, D, C, A

1. CSC(NC(=O)C(NC(=O)CCCNC(=O)NC12CC3CC(CC(C3)C1)C2)c1c[nH]cn1)C(=O)O (stereo not drawn)
2. CCCCC(O)CCCCNC(=O)NC12CC3CC(CC(C3)C1)C2 (stereo not drawn)
Higher IC50: 1 or 2 ? Answer = label. 1
(1: 1.5 µM, 2: 0.1 µM)

1. O=C(CCCc1ccccc1)NC1CCCCC1
2. CCCCC1COC(Nc2cccc(Cl)c2)=N1 (stereo not drawn)
Of 1 versus 2 , which is the one with smaller reported IC50? Answer = label. 1
